From: the DeepSol protein solubility set

measurement.notes: soluble on expression in E. coli; label from the status in PepcDB or PDB records
readout.kind: soluble on expression in E. coli

// worked examples, soluble on expression in E. coli included
record.sequence	soluble on expression in E. coli
MGHHHHHHHHHHSSGHIDDDDKHMYTKIIGTGSYLPEQVRTNADLEKMVDTSDEWIVTRTGIRERHIAAPNETVSTMGFEAATRAIEMAGIEKDQIGLIVVATTSATHAFPSAACQIQSMLGIKGCPAFDVAAACAGFTYALSVADQYVKSGAVKYALVVGSDVLARTCDPTDRGTIIIFGDGAGAAVLAASEEPGIISTHLHADGSYGELLTLPNADRVNPENSIHLTMAGNEVFKVAVTELAHIVDETLAANNLDRSQLDWLVPHQANLRIISATAKKLGMSMDNVVVTLDRHGNTSAASVPCALDEAVRDGRIKPGQLVLLEAFGGGFTWGSALVRF	soluble
PVDCSVIVVNKQTKDYAESVGRKVRDLGMVVDLIFLNTEVSLSQALEDVSRGGSPFAIVITQQHQIHRSCTVNIMFGTPQEHRNMPQADAMVLVARNYERYKNECREKEREEIARQA	soluble
MGSDKIHHHHHHLSKLYPHAKNRQDSGMDRNPTLAQWQLAQELRRLRGDRKFSEVVKAARTTGGSLARWETPGDRGAVPGPAALERLLQIYGAEDQLERLLSLRKEARQPDRWQPYGLERSYRTYANIESQATSIEYYQSQIVPGIAQTEAYARAVIEATLHPSSDVDREVQARMERQRVLSKPERPDLWLIIAEGALRQQVGTSQVMADQIDRLIELSQEPGITLQVLPFTAGAHVAMRLAGFVIMSIAQHGITTVYIEGQNSGMFFTDSEDLAEYGMIFNRLRAACLDEGRPTRTLLERIARDHRRGEG	not soluble
MGSDKIHHHHHHMSFFKTPLIGLKADSFRHPLDLEATKTLKQIPGIDMLVRNWLGPMAEQVFYVENIASSILVGEKQLPDLYKLLLDACEILDIEPPQLYVRQHPAPNAYTFAVRGKQPFVVLHTSLIDILTPEEIQAVIAHELGHLKCDHSVYLTPVNLLILAAAIVPNVGTFVAQAIQAQLLEWVRCAEFTCDRAALLATQDPKVVMSVLMKLAGGSPTLAPQLNLDAFVAQARAYDDISKTELGEMVKTARTAQLTHPVPVLRAREIDRWASSTEYQSLIQSHGLKSTSKEVAPKGGWRNW	not soluble
VDNVFIVGHRKLDMDALGSAVGMQFFAGNIIENSFAVYNPDEMSPDIERAIERLQADGKTRLISVSQAMGLVTPRSLLVMVDHSKISLTLSKEFYEQFQNVIVVDHHRRDDDFPDNAILTFIESGASSAAELVTELIQFQNAKKCLNKIQASVLMAGIMLDTKNFSTRVTSRTFDVASYLRSKGSDSVEIQNISATD	not soluble

Now consider a different sequence.
Measured soluble on expression in E. coli, MGHHHHHHSHDQLDRAGVAAVALSGGEPTIHPHFLRIVKELSSRGIHTSVATNGWTFADKEKLEEAVKAGLKYVEISVDSAKPEKHDEFRGIPGAWERAIKALENAVEIGVSHGMAVIMDKETYQEMDDILDLAESIGVKRVIFFNLVPTGRAEDMVKVDLTPEEREEFLKELYHQMKKRKLEILTTAPQYARVTLIESQGKNVSPAHFYVGQNTAVKTLAEFIGGCGAGRIYAGIEPDGTVVPCVFL : not soluble
